# Tested on: Huh-7
# assay.remarks: Extended test against tumor cell lines (ATPlite)
# Assay type: cell-based
# recorded.conditions: Huh-7 (liver cancer), 4 μM, 72 hours
Each record here notes measured Survival rate.

compound | unit.info | Survival rate
CSc1nccc(N2CCC(N(C)Cc3ccccc3Cl)CC2)n1 [Example 47] | % | 16.7
CSc1nccc(N2CCC(N(C)Cc3c(F)cccc3Cl)CC2)n1 [Example 37] | % | 14.9
CSc1nccc(N2CCC(N(C)Cc3ccc(Cl)cc3Cl)CC2)n1 [Example 40] | % | 14.3
CSc1nccc(N2CCC(N(C)Cc3ccc(C#N)cc3)CC2)n1 [Example 36] | % | 14.3
CSc1nccc(N2CCC(N(C)Cc3c(Cl)cccc3Cl)CC2)n1 [Example 49] | % | 12.8
